system: CTK; construct: gene MATK; details: concentration: 1 μM, replicates: in singlicate; n = 1;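 note: KINOMEscan kinase panel screen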
quantity-measured: %Inh (%)
Give just the numeric value; % need not be written.

Input line: State the recorded %Inh for this entry: COc1ccc(C2=C(Nc3cccc(O)c3)C(=O)NC2=O)cc1
Output line: 1

###

system: ANKK1; details: concentration: 1 μM, replicates: in singlicate; n = 1
quantity-measured: %Inh (%)
Give just the numeric value; % need not be written.

Please review the following examples before continuing.
# compound, unit-string, %Inh
data = [
    ("Cl.Cl.NC(CNC(=O)c1cc(Br)c(-c2ccnc3[nH]ccc23)s1)c1ccccc1 (stereo not shown)", "%", 38),
    ("CN(c1ccc(NC(=O)N2CCN(CCCN3CCOCC3)CC2)cc1)c1ccnc(Nc2ccc(CS(C)(=O)=O)cc2)n1.Cl", "%", 0),
    ("CCOc1nccc(-c2c(-c3ccc(F)cc3)ncn2C2CCNCC2)n1", "%", 0),
]

API: the following record is the query input.
Input line: State the recorded %Inh for this entry: CSc1ccc(NC2=C(c3ccc(Cl)cc3)C(=O)NC2=O)cc1
Output line: 3
